Experiment: BBB permeability assay, plasma and brain LC-MS/MS after oral administration;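 also: oral dosing solution 2 mg/mL in saline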
Format: in vivo, rat
Conditions: male, SD, rat, brain, oral, 2 mg/mL, time 0:30:00; individual replicates; read-out: Brain
Measured Endpoint: concentration at 0.5 h (ng/g)

>>> quantitative_result("CCN1CCN(c2cc(N3CCN(CC)CC3)nc(NCCNc3ccnc4cc(Cl)ccc34)n2)CC1 [4A7C-301]")
0

---

Property: EC50; scope: individual molecules
Target: Nurr1-LBD (Mus musculus)
Construct: transfected with pCMV-fNurr1, pGAL-Nurr1(LBD), pGAL-Nor1(LBD) or pGAL-Nur77(LBD) and reporter construct; expressed in transfected cells; host or cells: SK-N-BE(2)C (human neuroblastoma), N27-A (rat dopaminergic), MN9D (murine dopaminergic)
Sequence (Q06219 360-595 limits assumed): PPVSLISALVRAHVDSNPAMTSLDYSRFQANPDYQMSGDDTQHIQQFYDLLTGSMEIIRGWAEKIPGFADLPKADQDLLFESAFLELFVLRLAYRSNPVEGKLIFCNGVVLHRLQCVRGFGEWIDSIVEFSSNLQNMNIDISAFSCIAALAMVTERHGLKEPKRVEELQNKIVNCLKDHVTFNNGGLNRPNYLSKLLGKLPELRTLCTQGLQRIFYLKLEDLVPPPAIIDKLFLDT
Assay: Luciferase reporter assay, Nurr1-LBD, SK-N-BE(2)C cells
Type: cell-based
Details: Nurr1 activation, Supplementary Table 1, values given in nM
Measured Endpoint: EC50 (nM)

>>> quantitative_result("CCN1CCN(c2cc(C)nc(N(CCNc3ccnc4cc(Cl)ccc34)Cc3cccs3)n2)CC1")
94.9
>>> quantitative_result("CCN1CCN(c2cc(Cl)nc(NCCCNc3ccnc4cc(Cl)ccc34)n2)CC1")
634
>>> quantitative_result("Cc1cc(N2CCOCC2)nc(N(CCNc2ccnc3cc(Cl)ccc23)Cc2cccs2)n1")
1.07
>>> quantitative_result("CCN1CCN(c2cc(NCCNc3ccnc4cc(Cl)ccc34)nc(N3CCN(CC)CC3)n2)CC1")
8.5
>>> quantitative_result("CCN1CCN(c2cc(N3CCCCC3)nc(NCCNc3ccnc4cc(Cl)ccc34)n2)CC1")
9.67
>>> quantitative_result("Cc1cc(N2CCN(CCNc3ccnc4cc(Cl)ccc34)CC2)nc(N2CCCC2)n1")
1.28
>>> quantitative_result("CCN1CCN(c2cc(Cl)nc(NCCNc3ccnc4cc(Cl)ccc34)n2)CC1")
316
>>> quantitative_result("Clc1ccc2c(NCCN3CCN(c4ccnc(Cl)n4)CC3)ccnc2c1")
17
>>> quantitative_result("CCN1CCN(c2nc(C)cc(NCCCNc3ccnc4cc(Cl)ccc34)n2)CC1")
143
>>> quantitative_result("Clc1ccc2c(NCCN3CCN(c4nccc(-n5ccnc5)n4)CC3)ccnc2c1")
113
>>> quantitative_result("Cc1cc(NC2CCCC(Nc3ccnc4cc(Cl)ccc34)C2)nc(Cl)n1 (stereo not shown)")
110
>>> quantitative_result("Cc1cc(N(CCNc2ccnc3cc(Cl)ccc23)Cc2cccs2)nc(Cl)n1")
0.51
>>> quantitative_result("Cc1cc(N2CCN(C)CC2)nc(N(CCNc2ccnc3cc(Cl)ccc23)Cc2cccs2)n1")
431
>>> quantitative_result("Cc1cc(N(CCNc2ccnc3cc(Cl)ccc23)Cc2cccs2)nc(N2CCOCC2)n1")
9.83
>>> quantitative_result("Cc1cc(N(CCNc2ccnc3cc(Cl)ccc23)Cc2cccs2)nc(N2CCCCC2)n1")
2.14
>>> quantitative_result("CCN1CCN(c2cc(N3CCN(C)CC3)nc(NCCNc3ccnc4cc(Cl)ccc34)n2)CC1")
25.5
>>> quantitative_result("Cc1cc(N2CCN(CCNc3ccnc4cc(Cl)ccc34)CC2)nc(N2CCN(C)CC2)n1")
14.6
>>> quantitative_result("Clc1ccc2c(NCCN3CCN(c4ccnc(N5CCSCC5)n4)CC3)ccnc2c1")
33.7
>>> quantitative_result("CCN1CCN(c2nc(NCCCCNc3ccnc4cc(Cl)ccc34)c3ccccc3n2)CC1")
2.62
